Assay: Hepatocyte assay: concentration versus time data of parent compound, fitted for Km, Vmax and Kd
Details: Std (standardized) concentrations, hepatocyte assay
observed_property: Km (µM)

{"smiles_notation": "Oc1ccc2c3c1O[C@H]1[C@@H](O)CC[C@@]4(O)[C@@H](C2)N(CC2CCC2)CC[C@]314", "measurement": 10.9}

---

Test: Hepatocyte assay: concentration versus time data of parent compound, fitted for Km, Vmax and Kd
Settings: determined by non-linear fitting and minimization, compound-specific initial concentrations (Table 9)
observed_property: Km

{"compound": "Oc1ccc2c3c1O[C@H]1[C@@H](O)CC[C@@]4(O)[C@@H](C2)N(CC2CCC2)CC[C@]314 [Nalbuphine]", "observed_property": "Km", "measurement": "10 to 50 µM"}

This collection of values is drawn from patent US20040039530A1.
